tested on: THRa:RXRa (NR concentration 90 nM, RXRa partner concentration 90 nM); assay: PBM binding z-score (relative to random genomic background probes); higher = stronger binding; sequences stand for … in GC…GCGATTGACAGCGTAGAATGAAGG
Would you mind labelling by PBM binding z-score? At or over 3 is true (1), under is false (0).

Some entries whose results are on file:
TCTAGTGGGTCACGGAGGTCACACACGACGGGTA
true (1)
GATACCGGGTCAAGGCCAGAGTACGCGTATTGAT
true (1)
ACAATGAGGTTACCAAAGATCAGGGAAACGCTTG
false (0)

API: above_or_equal(metric=PBM binding z-score, cutoff=3) for item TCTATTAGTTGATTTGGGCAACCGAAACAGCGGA
false (0)

API: above_or_equal(metric=PBM binding z-score, cutoff=3) for item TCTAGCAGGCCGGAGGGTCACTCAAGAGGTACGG
false (0)

These data points were gathered from the supplement of paper PMC6555819.
